# procedure.text: Residual parent lipid levels in the liver of mice
# Format: in vivo, CD-1 mice
# assay.context: calculation assumes a 25 g mouse with a 1.5 g liver, >95% equals very slow metabolism of the lipid
value.kind: Approx. Percent Total Dose of Parent Lipid Remaining at 24 h (% ^)

molecule: CCCCCCCC(CCCCCCC)OC(=O)CCCCCCCN(CCCCCCCC(=O)OCCC(CCC)CCC)CCCNc1c(NC)c(=O)c1=O [Compound 63]
numeric.value: 9
//
molecule: CCCCCCC(CCCCCC)OC(=O)CCCCCCCN(CCCCCCCC(=O)OCCC(CCC)CCC)CCCNc1c(NC)c(=O)c1=O [Compound 64]
numeric.value: 6

[P] CCCCCCC(CCCCCC)OC(=O)CCCCCCCN(CCCCCCCC(=O)OCCC(CCCC)CCCC)CCCNc1c(NC)c(=O)c1=O [Compound 60]
[Q] CCCCCC(CCCCC)OC(=O)CCCCCCCN(CCCCCCCC(=O)OCCC(CCCC)CCCC)CCCNc1c(NC)c(=O)c1=O [Compound 61]
[R] CCCCCC(CCCCC)OC(=O)CCCCCCCN(CCCCCCCC(=O)OCCC(CCC)CCC)CCCNc1c(NC)c(=O)c1=O [Compound 65]
[S] CCCCC(CCCC)CCOC(=O)CCCCCCCN(CCCCCCCC(=O)OC(CCCC)CCCC)CCCNc1c(NC)c(=O)c1=O [Compound 62]
Order the items by recorded Approx. Percent Total Dose of Parent Lipid Remaining at 24 h; the first position goes to the largest value. The reply should contain the labels ordered as requested.
P, Q, S, R
(P: 9 % ^, Q: 6 % ^, S: 2 % ^, R: 0.9 % ^)

###

# procedure.text: Residual parent lipid levels in the liver of mice
# Assay type: in vivo, CD-1 mice
# assay.context: calculation assumes a 25 g mouse with a 1.5 g liver, >95% equals very slow metabolism of the lipid
value.kind: Approx. Percent Total Dose of Parent Lipid Remaining at 24 h

molecule: CCCCCCCCC(CCCCCCCC)OC(=O)CCCCCCCN(CCO)CCCCCCCC(=O)OCCCC(CCCCC)CCCCC [Compound 31]
result: <0.1%^

molecule: CCCCCCCCC(CCCCCCCC)OC(=O)CCCCCCCN(CCO)CCCCCCCC(=O)OCCC1CCC(CC)CC1 (stereo not drawn) [Compound 35]
result: <0.1%^

Now, please, on to the next molecule.
Entry under test: CCCCCCCCC(CCCCCCCC)OC(=O)CCCCCCCN(CCO)CCCCCCCC(=O)OCCC1CCC(CC)C1 (stereo not drawn) [Compound 37] . Its Approx. Percent Total Dose of Parent Lipid Remaining at 24 h was <0.1%^
